biological target: human GcgR (Homo sapiens, UniProt P47871); test: Functional cAMP activity in the presence of 1% HSA; assay type: cell-based; conditions: read-out: cAMP Rel EC50, hGcgR
Sequence (P47871 26-477): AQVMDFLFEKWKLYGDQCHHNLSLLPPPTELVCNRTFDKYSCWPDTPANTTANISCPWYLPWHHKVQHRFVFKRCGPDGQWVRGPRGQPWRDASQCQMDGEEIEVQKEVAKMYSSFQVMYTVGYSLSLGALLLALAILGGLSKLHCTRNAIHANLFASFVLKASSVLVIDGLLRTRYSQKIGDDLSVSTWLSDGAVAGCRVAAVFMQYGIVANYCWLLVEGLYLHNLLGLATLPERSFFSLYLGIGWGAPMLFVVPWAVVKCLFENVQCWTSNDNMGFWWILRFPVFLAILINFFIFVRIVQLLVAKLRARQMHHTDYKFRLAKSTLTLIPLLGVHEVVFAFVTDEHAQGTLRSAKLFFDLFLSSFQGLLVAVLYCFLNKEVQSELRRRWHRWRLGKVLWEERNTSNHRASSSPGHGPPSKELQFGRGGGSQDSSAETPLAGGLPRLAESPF
Starred links: 1 amine or outer side, 2 acyl side, 3 side chain; linkers in the order of their positions; H or OH if unused. Non-standard residues stand in square brackets, D forms with d. Groups on a side chain read outwards from the residue. No end group written: not given here. *: point of attachment. C18 diacid = O=C(O)CCCCCCCCCCCCCCCCC(=O)*; αMePhe(2-F) = C[C@](N)(Cc1ccccc1F)C(=O)O; γGlu = O=C(O)[C@H](CCC(=O)[*:2])N[*:1]; αMe4Pal = C[C@](N)(Cc1ccncc1)C(=O)O; αMeY = C[C@](N)(Cc1ccc(O)cc1)C(=O)O; 4Pal = N[C@@H](Cc1ccncc1)C(=O)O; αMeL = CC(C)C[C@](C)(N)C(=O)O; αMeS = C[C@](N)(CO)C(=O)O; Orn = NCCC[C@H](N)C(=O)O; AEEA = NCCOCCOCC(=O)O; Aib = CC(C)(N)C(=O)O
Rule: EC50 below 300 nM gives True, anything at or above gives False.

[
  {
    "Substance": "Y[Aib]QGTFTSDFSK[αMeL]LDKK([AEEA-γGlu-C18 diacid])AQ[Aib]AFIEYLIE[Aib]GPSSGAPPPSGS-NH2 [Example 797]",
    "Class Name": "False"
  },
  {
    "Substance": "H-Y[Aib]QGT[αMePhe(2-F)]TSD[4Pal][αMeS]I[αMeL]LD[Orn]K([AEEA-γGlu-C18 diacid])AQ[αMe4Pal]EFI[dE][αMeY]LVEGGPSSGEPPPSGSE-NH2 [Example 752]",
    "Class Name": "True"
  },
  {
    "Substance": "H-Y[Aib]QGTFTSD[4Pal][αMeS]I[αMeL]LD[Orn]K([dE-γGlu-C18 diacid])AQ[αMe4Pal]QFIQ[αMeY]LIE[Aib]GPSSGAPPPSGGGE-NH2 [Example 1136]",
    "Class Name": "True"
  }
]
